# study.target: T1, PACAP38 (human, not fully specified)
# T1 construct: The background says natural PACAP is alpha-amidated
# T1 peptide: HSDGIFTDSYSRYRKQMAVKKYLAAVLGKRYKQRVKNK
# procedure.details: SPR (Biacore), 37 C, antibody captured via anti-human Fc, peptide analyte
We use 0.0005 s⁻¹ as the dividing line for koff: on or above the line is TRUE, below is FALSE.

>  <binder>
917B (antibody, V domains shown, Humanized anti-PACAP variant) VH: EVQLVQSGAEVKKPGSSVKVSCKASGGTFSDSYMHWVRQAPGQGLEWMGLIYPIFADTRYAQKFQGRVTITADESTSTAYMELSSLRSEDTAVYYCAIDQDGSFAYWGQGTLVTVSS VL: DIVMTQSPDSLAVSLGERATINCKSSQSLLDSDGKTYLNWLQQKPGQPPKRLIYLVSTRESGVPDRFSGSGSGTDFTLTISSLQAEDVAVYYCWQGTWFDLTFGGGTKVEIK

>  <assigned.class>
FALSE

$$$$
>  <binder>
608C (antibody, V domains shown) VH: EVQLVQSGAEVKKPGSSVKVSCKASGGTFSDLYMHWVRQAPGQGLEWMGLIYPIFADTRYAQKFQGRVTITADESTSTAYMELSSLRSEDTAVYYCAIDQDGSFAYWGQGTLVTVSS VL: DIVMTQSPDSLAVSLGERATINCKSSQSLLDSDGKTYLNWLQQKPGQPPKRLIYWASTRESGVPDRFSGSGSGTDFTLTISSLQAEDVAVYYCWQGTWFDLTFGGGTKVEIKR

>  <assigned.class>
TRUE

$$$$
>  <binder>
919A (antibody, V domains shown, Humanized anti-PACAP variant) VH: EVQLVQSGAEVKKPGSSVKVSCKASGGTFSDSYMHWVRQAPGQGLEWMGLIYPIFADTRYAQKFQGRVTITADESTSTAYMELSSLRSEDTAVYYCAIDYDGSFAYWGQGTLVTVSS VL: DIVMTQSPDSLAVSLGERATINCKSSQSLLDSDGKTYLNWLQQKPGQPPKRLIYLVSTRESGVPDRFSGSGSGTDFTLTISSLQAEDVAVYYCWQGTHFPLTFGGGTKVEIK

>  <assigned.class>
TRUE

$$$$
>  <binder>
627C (antibody, V domains shown) VH: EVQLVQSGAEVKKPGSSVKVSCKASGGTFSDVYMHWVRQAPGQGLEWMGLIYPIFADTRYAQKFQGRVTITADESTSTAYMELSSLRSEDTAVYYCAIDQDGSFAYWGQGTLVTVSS VL: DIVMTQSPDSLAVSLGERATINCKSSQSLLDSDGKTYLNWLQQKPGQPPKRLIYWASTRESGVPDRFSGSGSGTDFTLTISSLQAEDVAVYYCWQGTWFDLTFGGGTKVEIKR

>  <assigned.class>
TRUE

$$$$
>  <binder>
524C (antibody, V domains shown, LC S(27E), G29, L50, V51, K53T, L54R, D55E, H93W, P95D) VH: EVQLVQSGAEVKKPGSSVKVSCKASGGTFSDSYMHWVRQAPGQGLEWMGLIYPIFADQRYAQKFQGRVTITADESTSTAYMELSSLRSEDTAVYYCAIDQDASFAYWGQGTLVTVSS VL: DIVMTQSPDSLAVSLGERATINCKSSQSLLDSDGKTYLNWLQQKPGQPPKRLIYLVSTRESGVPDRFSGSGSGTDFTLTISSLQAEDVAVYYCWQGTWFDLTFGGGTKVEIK

>  <assigned.class>
TRUE

$$$$
